target: human TLR7 (Homo sapiens, UniProt Q9NYK1); construct: host or cells: HEK293 (HEK-Blue hTLR7); experiment: HEK-Blue hTLR7 reporter cell assay (SEAP, NF-kB/AP-1) for stimulation of human TLR7; format: cell-based; settings: HEK-Blue hTLR7 cells; μM; read-out: TLR7_EC50
Sequence (Q9NYK1 27-1049): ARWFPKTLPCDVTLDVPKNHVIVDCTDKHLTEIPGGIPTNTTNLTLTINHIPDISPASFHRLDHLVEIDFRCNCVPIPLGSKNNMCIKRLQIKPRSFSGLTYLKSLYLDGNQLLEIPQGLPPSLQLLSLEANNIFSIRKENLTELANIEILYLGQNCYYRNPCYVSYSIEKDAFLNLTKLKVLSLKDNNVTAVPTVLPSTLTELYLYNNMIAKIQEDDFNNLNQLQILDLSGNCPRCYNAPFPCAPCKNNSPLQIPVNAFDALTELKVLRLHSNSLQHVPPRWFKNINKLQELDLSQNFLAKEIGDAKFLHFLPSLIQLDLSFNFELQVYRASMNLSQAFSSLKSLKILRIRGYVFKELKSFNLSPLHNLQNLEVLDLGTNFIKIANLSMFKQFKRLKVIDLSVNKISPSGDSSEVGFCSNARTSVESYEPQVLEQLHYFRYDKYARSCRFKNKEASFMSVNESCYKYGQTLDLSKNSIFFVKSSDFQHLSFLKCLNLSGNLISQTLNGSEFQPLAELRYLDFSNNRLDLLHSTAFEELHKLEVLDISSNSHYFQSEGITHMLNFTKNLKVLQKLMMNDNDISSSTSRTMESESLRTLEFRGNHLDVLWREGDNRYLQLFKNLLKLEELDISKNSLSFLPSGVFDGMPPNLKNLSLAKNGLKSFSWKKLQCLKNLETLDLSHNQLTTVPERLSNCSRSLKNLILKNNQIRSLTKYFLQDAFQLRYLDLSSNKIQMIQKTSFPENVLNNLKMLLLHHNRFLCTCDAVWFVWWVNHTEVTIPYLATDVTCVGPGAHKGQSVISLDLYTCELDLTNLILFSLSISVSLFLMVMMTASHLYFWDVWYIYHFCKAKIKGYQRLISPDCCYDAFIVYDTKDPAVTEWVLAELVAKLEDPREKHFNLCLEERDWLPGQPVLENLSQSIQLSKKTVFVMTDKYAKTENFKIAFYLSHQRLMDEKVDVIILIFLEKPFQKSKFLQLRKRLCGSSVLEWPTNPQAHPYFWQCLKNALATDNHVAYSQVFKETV

molecular-string	EC50
CCCCc1nc2c(N)nnc(C3=CCNC3)c2n1Cc1ccc(CN)cc1	> 20 µM

###

Parameter: EC50. Scope: all listed entries.
biological target: human TLR8 (Homo sapiens, UniProt Q9NR97); assay: HEK-Blue hTLR8 reporter cell assay (SEAP, NF-kB/AP-1) for stimulation of human TLR8; conditions: HEK-Blue hTLR8 cells, 24 h incubation, SEAP readout; read-out: TLR8_EC50

compound	scale-unit	result-modifier	EC50
CCCCc1nc2c(N)nnc(OC(C)C)c2n1Cc1ccc(CNC(=O)CCOC)cc1	nM	>	20000
CCCCc1nc2c(N)nnc(N(C)Cc3ccc(CN4CCOCC4)cc3)c2n1C	nM	=	467
CCCCc1nc2c(N)nnc(OC(C)C)c2n1Cc1ccc(CN(C)C)cc1	nM	=	1820
CCCCc1nc2c(N)nnc(-c3ccsc3)c2n1Cc1ccc(OC)cc1	nM	>	20000
CCCCc1nc2c(N)nnc(OC(C)C)c2n1Cc1ccc(CO)cc1	nM	>	20000
CCCCc1nc2c(N)nnc(-c3cc[nH]c3)c2n1Cc1ccc(CN)cc1 [Compound 135, 2,2,2-trifluoroacetate]	nM	=	252
CCCCc1nc2c(N)nnc(OC(C)C)c2n1Cc1ccc(CNC(=O)CC)cc1	nM	=	15500

###

Target: human TLR7 (Homo sapiens)
Construct: host or cells: HEK293 (HEK-Blue hTLR7)
Assay: HEK-Blue hTLR7 reporter cell assay (SEAP, NF-kB/AP-1) for stimulation of human TLR7
Type: cell-based
Details: HEK-Blue hTLR7 cells, 24 h incubation, SEAP readout; read-out: TLR7_EC50
Procedure: The below tests, involving measuring the in vitro activity of some compounds of the disclosure on TLR7 and TLR8, were carried out using the HEK-Blue™ cells as reporter. The activity described below, with respect to TLR7, TLR8, IFN-α2a, IL-6, IL29 and TNF-α, is given by the half maximal effective concentration (EC50), which corresponds to the concentration required to obtain a 50% of the activation. […]
pEC50: −log10 of the molar value. Structures can show the parent of a compound that is named as a salt.
Attribute: pEC50

compound	system-name	pEC50
CCCCc1nc2c(N)nnc(OC(C)C)c2n1CCCCCCNC1CCOCC1 [Compound 147, dihydrochloride]	human TLR7 (Homo sapiens)	7.69
CCCCc1nc2c(N)nnc(OC3CCCC3)c2n1Cc1ccc(OC)cc1 [Compound 9]	human TLR7 (Homo sapiens)	6.87
CCCCc1nc2c(N)nnc(C3=CCCC3)c2n1Cc1ccc(OC)cc1 [Compound 15, hydrochloride]	human TLR7 (Homo sapiens)	6.19
CCCCc1nc2c(N)nnc(OC(C)C)c2n1Cc1ccc(CNS(C)(=O)=O)cc1 [Compound 115]	human TLR7 (Homo sapiens)	6.97
CCCCc1nc2c(N)nnc(-c3cccn3C)c2n1Cc1ccc(OC)cc1 [Compound 70, hydrochloride]	human TLR7 (Homo sapiens)	5.40
CCCCc1nc2c(N)nnc(OC(C)C)c2n1Cc1ccc(CNC(C)C)cc1 [Compound 83, dihydrochloride]	human TLR7 (Homo sapiens)	8.10
CCCCc1nc2c(N)nnc(OC3CC[S+]([O-])C3)c2n1Cc1ccc(OC)cc1 (single isomer, unassigned; isomer b) [Compound 69]	human TLR7 (Homo sapiens)	5.17
CCCCc1nc2c(N)nnc(OC(C)C)c2n1Cc1ccc(CN2CCNCC2)cc1 [Compound 40]	human TLR7 (Homo sapiens)	7.68
CCCCc1nc2c(N)nnc(OC(C)C)c2n1Cc1ccc(CNCCOCCOCCOCCOCCOCCOCCOCCOC)cc1 [Compound 122]	human TLR7 (Homo sapiens)	6.14
CCCCc1nc2c(N)nnc(OC(C)C)c2n1CC(CO)CO [Compound 157, hydrochloride]	human TLR7 (Homo sapiens)	6.27
CCCCc1nc2c(N)nnc(OC(C)C)c2n1Cc1ccc(CNC)cc1 [Compound 118]	human TLR7 (Homo sapiens)	7.96
CCCCc1nc2c(N)nnc(OC(C)C)c2n1Cc1ccc(CNC(=O)OCC)cc1 [Compound 111]	human TLR7 (Homo sapiens)	7.00
CCCCc1nc2c(N)nnc(OC(C)C)c2n1Cc1ccc(CNCCOCCOCCOC)cc1 [Compound 120]	human TLR7 (Homo sapiens)	6.88
CCCCc1nc2c(N)nnc(OC(C)C)c2n1C[C@H]1CCC[C@@H](N)C1 (racemic) [Compound 23]	human TLR7 (Homo sapiens)	6.76
CCCCc1nc2c(N)nnc(SC(C)C)c2n1Cc1ccc(OC)cc1 [Compound 3]	human TLR7 (Homo sapiens)	6.25
CCCCc1nc2c(N)nnc(-c3cc[nH]c3)c2n1Cc1ccc(CN)cc1 [Compound 135, 2,2,2-trifluoroacetate]	human TLR7 (Homo sapiens)	6.87

###

molecular target: human TLR8 (Homo sapiens); experiment: HEK-Blue hTLR8 reporter cell assay (SEAP, NF-kB/AP-1) for stimulation of human TLR8; settings: HEK-Blue hTLR8 cells, 24 h incubation, SEAP readout; read-out: TLR8_EC50
pEC50: −log10 of the molar value. Where a name gives a salt, the structure may show the parent alone.
Here, each record is paired with measured pEC50 data.
observed-property: pEC50

compound	system-name	readout-value
CCCCc1nc2c(N)nnc(-c3ccn(C)c3)c2n1Cc1ccc(OC)cc1 [Compound 11]	human TLR8 (Homo sapiens)	< 4.70
CCCCc1nc2c(N)nnc(OC(C)C)c2n1CCCCNC1CS(=O)(=O)C1 [Compound 152]	human TLR8 (Homo sapiens)	< 4.70
CCCCc1nc2c(N)nnc(OC(C)C)c2n1C[C@H]1CC[C@H](CN)CC1 [Compound 19, dihydrochloride]	human TLR8 (Homo sapiens)	< 4.70
CCCCc1nc2c(N)nnc(OC(C)C)c2n1C[C@H]1CCC[C@H](N)C1 (racemic) [Compound 32]	human TLR8 (Homo sapiens)	6.15

###

Target: human TLR8 (Homo sapiens, UniProt Q9NR97)
Sequence (Q9NR97 27-1041): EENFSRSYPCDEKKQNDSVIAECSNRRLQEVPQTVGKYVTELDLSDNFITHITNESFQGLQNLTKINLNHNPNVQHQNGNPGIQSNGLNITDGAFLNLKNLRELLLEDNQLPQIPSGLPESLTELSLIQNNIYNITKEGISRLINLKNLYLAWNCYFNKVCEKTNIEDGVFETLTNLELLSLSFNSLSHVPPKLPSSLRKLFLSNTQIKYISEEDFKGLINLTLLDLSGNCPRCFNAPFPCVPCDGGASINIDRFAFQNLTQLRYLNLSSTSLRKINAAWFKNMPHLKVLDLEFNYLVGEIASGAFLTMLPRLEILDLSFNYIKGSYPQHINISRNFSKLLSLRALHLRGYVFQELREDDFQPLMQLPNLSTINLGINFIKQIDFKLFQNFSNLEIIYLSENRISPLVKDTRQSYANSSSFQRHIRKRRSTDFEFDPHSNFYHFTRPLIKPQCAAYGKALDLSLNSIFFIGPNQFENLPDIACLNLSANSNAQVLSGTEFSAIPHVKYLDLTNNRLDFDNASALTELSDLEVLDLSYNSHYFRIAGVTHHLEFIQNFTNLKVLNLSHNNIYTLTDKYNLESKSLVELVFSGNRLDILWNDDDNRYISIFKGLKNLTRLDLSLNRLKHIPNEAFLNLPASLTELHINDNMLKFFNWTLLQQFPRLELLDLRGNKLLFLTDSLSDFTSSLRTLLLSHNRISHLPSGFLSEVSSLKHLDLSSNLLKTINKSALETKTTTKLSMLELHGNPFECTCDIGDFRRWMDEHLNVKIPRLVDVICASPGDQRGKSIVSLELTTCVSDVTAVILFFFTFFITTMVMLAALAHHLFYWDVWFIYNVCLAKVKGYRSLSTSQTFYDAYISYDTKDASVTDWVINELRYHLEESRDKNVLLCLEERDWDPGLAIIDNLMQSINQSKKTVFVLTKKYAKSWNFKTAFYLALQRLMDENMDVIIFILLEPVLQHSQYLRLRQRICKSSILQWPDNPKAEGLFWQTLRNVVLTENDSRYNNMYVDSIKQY
Assay: HEK-Blue hTLR8 reporter cell assay (SEAP, NF-kB/AP-1) for stimulation of human TLR8
Conditions: HEK-Blue hTLR8 cells, 24 h incubation, SEAP readout; read-out: TLR8_EC50
pEC50: −log10 of the molar value. Where a name gives a salt, the structure may show the parent alone.
The entries below are paired with their reported pEC50.

compound	system-name	pEC50
CCCCCCC(=O)NCc1ccc(Cn2c(CCCC)nc3c(N)nnc(OC(C)C)c32)cc1 [Compound 84]	human TLR8 (Homo sapiens, UniProt Q9NR97)	5.74
CCCCc1nc2c(N)nnc(OC(C)C)c2n1Cc1ccc(CN)cn1 [Compound 26]	human TLR8 (Homo sapiens, UniProt Q9NR97)	< 4.70
CCCCc1nc2c(N)nnc(OC(C)C)c2n1Cc1ccc(CN2CCOCC2)cc1 [Compound 102]	human TLR8 (Homo sapiens, UniProt Q9NR97)	5.42
CCCCc1nc2c(N)nnc(N(C)Cc3ccc(CN(C)CCOC)cc3)c2n1C [Compound 47]	human TLR8 (Homo sapiens, UniProt Q9NR97)	6.65
CCCCc1nc2c(N)nnc(CCC(C)C)c2n1Cc1ccc(OC)cc1 [Compound 13]	human TLR8 (Homo sapiens, UniProt Q9NR97)	< 4.70
CCCCc1nc2c(N)nnc(N3CCCC3)c2n1C[C@H]1CC[C@H](CN)CC1 [Compound 142]	human TLR8 (Homo sapiens, UniProt Q9NR97)	< 4.70
CCCCc1nc2c(N)nnc(N(C)Cc3ccc(CN)cc3)c2n1C [Compound 46]	human TLR8 (Homo sapiens, UniProt Q9NR97)	5.39
CCCCc1nc2c(N)nnc(N3CCCC3)c2n1Cc1ccc(CN)cc1 [Compound 134]	human TLR8 (Homo sapiens, UniProt Q9NR97)	< 4.70
CCCCc1nc2c(N)nnc(OC(C)C)c2n1Cc1ccc(CNCCOCCOCCOCCOCCOCCOC)cc1 [Compound 105]	human TLR8 (Homo sapiens, UniProt Q9NR97)	< 4.70
CCCCc1nc2c(N)nnc(OC(C)C)c2n1CCCCCCN [Compound 146, dihydrochloride salt]	human TLR8 (Homo sapiens, UniProt Q9NR97)	< 4.70
CCCCc1nc2c(N)nnc(OCC)c2n1Cc1ccc(OC)cc1 [Compound 48]	human TLR8 (Homo sapiens, UniProt Q9NR97)	< 4.70
